The origin of these recorded values is ChEMBL document CHEMBL1201862.

# maps each entry to its GI50
test system: BT-549; assay: NCI tumour cell line growth inhibition, 48 h
The source made the active and inactive calls. No stated cut-off is given here; in the data, active = GI50 up to about 1.1 µM and inactive = higher.

// Cc1ccc2c(c1)C(=O)C(Cc1ccccc1C(=O)O)C2 (stereo not given) : GI50 value = > 100 µM (inactive)

// CNC(=O)C(NC(=O)[C@H](CC(C)C)NC(=O)[C@@H](S)CCN1C(=O)N(C)C(C)(C)C1=O)C(C)(C)C (stereo not given in full) : GI50 value = > 100 µM (inactive)

// Cc1cc(C)c2c(O)cc(-c3cccc4ccccc34)nc2n1 : GI50 value = 3.3 µM (inactive)

// CC[n+]1c(-c2ccccc2)c2cc(N)ccc2c2ccc(N)cc21 [HOMIDIUM BROMIDE] : GI50 value = 1.14 µM (inactive)

// CCCCNC(=S)c1ccc(OC(=O)Nc2ccc(Cl)cc2)cc1 : GI50 value = 20.6 µM (inactive)

---

# maps each entry to its GI50
test system: HCC 2998; assay: NCI tumour cell line growth inhibition, 48 h
Active and inactive are the calls of the source. Cut-off read from the data, not from the text of the source: active = GI50 up to about 1.1 µM and inactive = higher.

Study these solved cases before continuing.
// COC1(O)c2cccc(Cl)c2C(=O)N1C1(C(N)=O)CCCCC1 (stereo unspecified) : GI50 value = > 100 µM (inactive)

// COCCCN1C(=O)C2c3[nH]c4ccccc4c3C3CCC(C(C)(C)C)CC3C2C1=O (stereo unspecified) : GI50 value = 20.3 µM (inactive)

// O=C1c2cn[nH]c2N=C(Nc2ccccc2)C1/N=C/c1ccc([N+](=O)[O-])cc1 (stereo unspecified) : GI50 value = > 10 µM (inactive)

// O=C(NCCCCCCCCCCCCNC(=O)c1cnc2ccccc2n1)c1cnc2ccccc2n1 : GI50 value = > 100 µM (inactive)

// COc1cc(C=O)c(-c2cc(OC)c(OC)cc2C=O)cc1OC : GI50 value = > 100 µM (inactive)

More entries:
// CC(C)(C)Cc1cc(O)ccc1O : GI50 value = 51.9 µM (inactive)

// CN1CC(=O)N2Cc3ccccc3-n3cccc3C2C1 (stereo unspecified) : GI50 value = > 100 µM (inactive)

// CC(=O)Nc1ccc(/C=C2\N=C(c3ccccc3)OC2=O)cc1 : GI50 value = 36.1 µM (inactive)

---

system: RXF 631; experiment: NCI tumour cell line growth inhibition, 48 h
Calls of active or inactive are those of the source. Rule as the data show it: active = GI50 up to about 1.1 µM and inactive = higher.
experimental.readout: GI50

Study these solved cases before continuing.
// O=C1CCCC/C1=C/C=C/c1ccccc1 : GI50 value = 69.2 µM (inactive)

// CC(=O)O[C@H]1CCC2[C@@H]3CCC4Nc5c(cnn5-c5ccccc5)C[C@]4(C)C3CC[C@@]21C (some centres not stated) : GI50 value = 14.9 µM (inactive)

// COc1ccc(C2=C(Cl)c3cc(OC)c(OC)cc3C2Cl)cc1OC (configuration not stated) : GI50 value = 19.1 µM (inactive)

// Cc1nc(C(N)=S)sc1C(=O)/C=C/c1c(O)ccc2ccccc12 : GI50 value = > 100 µM (inactive)

// Cc1cccc(C)c1NC(=O)CCCC(=O)C1CCC/C1=N\NC(=O)C(=O)NN (configuration not stated) : GI50 value = > 100 µM (inactive)

More entries:
// O=C(O)/C(O)=C1/C=C(c2ccccc2)c2ccccc21 : GI50 value = 28.6 µM (inactive)

// CC(C)(C)C(=O)N1C(C(=O)O)Cc2ccccc2[C@@H]1Cc1ccccc1 (some centres not stated) : GI50 value = > 100 µM (inactive)

// CC(=O)OCC1OC(n2c(=O)n(-c3ccccc3)c(=O)c3ccccc32)C(OC(C)=O)C(OC(C)=O)C1OC(C)=O (configuration not stated) : GI50 value = > 100 µM (inactive)

---

tested on: HOP-62; test: NCI tumour cell line growth inhibition, 48 h
Active and inactive are the calls of the source. No stated cut-off is given here; in the data, active = GI50 up to about 1.1 µM and inactive = higher.
Field 'call' accepts active, inactive

Record request — test call for Cc1ccc(NC(=O)/C(Cc2cc(=O)oc3cc(O)ccc23)=N\NC(=O)C[N+](C)(C)C)cc1C
inactive

Record request — test call for CC(Cc1ccccc1)NC1=NCCO1 (stereo unspecified)
inactive

---

tested on: Hs-578T; assay: NCI tumour cell line growth inhibition, 48 h
Activity calls are given as the source filed them. Cut-off read from the data, not from the text of the source: active = GI50 up to about 1.1 µM and inactive = higher.
# maps each entry to its GI50

Study these solved cases before continuing.
Note to self: GI50 of CCn1c(SCC(=O)NNC(=S)Nc2ccc([N+](=O)[O-])cc2)nc2ccccc2c1=O with Hs-578T was > 100 µM (inactive)

Note to self: GI50 of CNC(=O)C(NC(=O)[C@H](CC(C)C)NC(=O)[C@@H](S)CCN1C(=O)N(C)C(C)(C)C1=O)C(C)(C)C (stereo partly drawn) with Hs-578T was > 100 µM (inactive)

Note to self: GI50 of CC(=O)OC1CC[C@]2(C)C3CC[C@@]4(C)C(CCC4[C@H](C)CCCC(C)C)[C@@H]3CCC2(Br)C1 (stereo partly drawn) with Hs-578T was 10.1 µM (inactive)

Below: the item to evaluate.
Note to self: GI50 of O=c1c2ccccc2nc2n1C(c1ccc([N+](=O)[O-])cc1)C2(c1ccccc1)c1ccccc1 (stereo not drawn) with Hs-578T was 66.2 µM (inactive)

---

tested on: IGROV-1; experiment: NCI tumour cell line growth inhibition, 48 h
Calls of active or inactive are those of the source. No stated cut-off is given here; in the data, active = GI50 up to about 1.1 µM and inactive = higher.
experimental.readout: GI50

Study these solved cases before continuing.
// NC(CCc1nc(-c2cccc([N+](=O)[O-])c2)cs1)C(=O)O (stereo not given) : GI50 value = > 100 µM (inactive)

// N/C(=N\c1ccc(Cl)cc1)NS(=O)(=O)c1cccc2nsnc12 : GI50 value = 23.7 µM (inactive)

// O=c1c2ccccc2nc(-c2cccc([N+](=O)[O-])c2)n1O : GI50 value = 22.8 µM (inactive)

// COc1ccc2cc(C(=O)NCCCNC(=O)c3ccc4cc(OC)ccc4c3)ccc2c1 : GI50 value = 39.4 µM (inactive)

Below: the item to evaluate.
// O=c1c2cc([N+](=O)[O-])ccc2n(Cc2ccccc2)n1Cc1ccccc1 : GI50 value = 20.8 µM (inactive)

---

test system: HT-29; assay: NCI tumour cell line growth inhibition, 48 h
The source made the active and inactive calls. Cut-off read from the data, not from the text of the source: active = GI50 up to about 1.1 µM and inactive = higher.
experimental.readout: GI50

Study these solved cases before continuing.
// COc1ccc(/C=C2\N=C(N3CCOCC3)NC2=O)cc1 : GI50 value = > 100 µM (inactive)

// O=C1CCCCC/C1=C\c1cccc([N+](=O)[O-])c1 : GI50 value = 37.2 µM (inactive)

// c1ccc2c(c1)c1c(c3ccccc32)CN2CCCC2C1 (configuration not stated) : GI50 value = 3.72 µM (inactive)

// c1ccc(CN2CCC(=NN3CCCCC3)CC2)cc1 : GI50 value = 32.4 µM (inactive)

// CC(C)(O)/C=C\P(=O)(O)O : GI50 value = > 100 µM (inactive)

More entries:
// O=[N+]([O-])c1ccc(Cl)cc1C1ON=C(c2ccccc2)N1C12CC3CC(CC(C3)C1)C2 (configuration not stated) : GI50 value = > 100 µM (inactive)

// C[C@]12CCC(=O)C=C1C[C@@H](O)[C@@H]1[C@@H]2CC[C@@]2(C)[C@H]1CC[C@]2(C)O : GI50 value = > 100 µM (inactive)

---

tested on: NCI-H226; test: NCI tumour cell line growth inhibition, 48 h
Calls of active or inactive are those of the source. No stated cut-off is given here; in the data, active = GI50 up to about 1.1 µM and inactive = higher.
Field 'call' accepts active, inactive

Consider the worked cases shown below.
Record request — test call for C=CCC(CNC(=O)OCc1ccccc1)OC(=O)OCc1ccccc1 (stereo not given)
inactive

Record request — test call for C[C@]12CCC(=O)C=C1C[C@@H](O)[C@@H]1[C@@H]2CC[C@@]2(C)[C@H]1CC[C@]2(C)O
inactive

Record request — test call for O=c1oc2c(O)c(O)c(O)c3c(=O)oc4c(O)c(O)cc1c4c23
inactive

Record request — test call for COC1=C2C[C@](OC)(C#CC=CC#CC2O)CC1(C)C (stereo not given in full)
inactive

More entries:
Record request — test call for CN(C)CCc1c2c(nc3ccccc13)C(=O)c1cccnc1C2=O
active

---

system: SNB-19; test: NCI tumour cell line growth inhibition, 48 h
Calls of active or inactive are those of the source. Cut-off read from the data, not from the text of the source: active = GI50 up to about 1.1 µM and inactive = higher.
experimental.readout: GI50

Study these solved cases before continuing.
// COc1ccc(NC(=O)CC(=O)N2N=C(N(CCC#N)c3cccc(C)c3)CC2c2ccccc2)cc1 (configuration not stated) : GI50 value = > 100 µM (inactive)

// CC1CCC2(C)C(CC=C(C=O)C2(O)C=O)C12CO2 (configuration not stated) : GI50 value = 9.66 µM (inactive)

// CC1SC2=NC3=C(c4ccccc4C3=O)C(c3ccccc3Cl)N2C1=O (configuration not stated) : GI50 value = > 100 µM (inactive)

// CC(C)(C)OC(=O)N1CCC2(C)CC(=O)CC=C12 (configuration not stated) : GI50 value = > 100 µM (inactive)

More entries:
// C[Si](C)(c1ccc(C(=O)O)cc1)c1ccc(C(=O)O)cc1 : GI50 value = > 100 µM (inactive)

// O=[N+]([O-])c1ccc(-c2nc3ccccc3o2)cc1 : GI50 value = > 100 µM (inactive)

// CCn1c(-c2ccc(OC(C)=O)cc2)c(C)c2cc(OC(C)=O)ccc21 : GI50 value = 31 µM (inactive)

// COc1cccc(C=O)c1[O-].COc1cccc(C=O)c1[O-].[Zn+2] : GI50 value = > 100 µM (inactive)

// Oc1nc(S)nc2c1C(c1ccc(Cl)cc1)c1c(O)nc(S)nc1O2 : GI50 value = > 100 µM (inactive)

// Nc1nc(NC2C=C(CO)C(O)C2O)c([N+](=O)[O-])c(=O)[nH]1 (configuration not stated) : GI50 value = > 100 µM (inactive)

// COc1cc(C(c2ccc3c(c2)OCO3)N2C(=O)CCC2C(=O)O)cc(OC)c1OC (configuration not stated) : GI50 value = > 100 µM (inactive)
